Overview of reported intrinsic clearance, human liver microsomes across a group of compounds:
property: intrinsic clearance, human liver microsomes

compound-structure | reported-measurement
O=C(c1ccc(-c2ccncc2)cc1)N1CCC(O)(CN2CCCC2)CC1 | ≤ 4.74 mL/min/kg
Cc1oc(C)c(C(=O)NCC#Cc2ccccc2)c1C | 107 mL/min/kg
Clc1ccc2c(Oc3cccnc3)ncnc2c1 | 16.7 mL/min/kg
Cc1ncsc1CCN1C(=O)NC2(CCCC2)C1=O | ≤ 4.74 mL/min/kg
Cc1ccc(-c2ccc(N(C)CCO)nn2)c(-n2cccn2)c1 | ≤ 4.74 mL/min/kg
CCNC(=O)N1CCC(c2nc(-c3ccccc3)no2)CC1 | ≤ 4.74 mL/min/kg

* * *

Threshold rule: MDR1-MDCK efflux ratio greater than or equal to 2 is Fulfilled; below that, Not fulfilled.

compound-structure | cat
CCn1nccc1-c1cc(C)nc(N2CCCC2)n1 | Not fulfilled
CN(C)c1ccc(Cn2c(=O)[nH]c3ccccc3c2=O)cn1 | Fulfilled
COc1ccc(-c2noc([C@@H]3CCCN3Cc3cccnc3)n2)cn1 | Not fulfilled
Cn1cc(-c2ccnc(/C=C/c3ccc(F)cc3Br)n2)cn1 | Not fulfilled
O=C(NCc1ccc(F)cc1)C1CCN(C(=O)/C=C/c2ccccc2)CC1 | Fulfilled
c1ccc(-c2c(-c3ccc(OCCN4CCCC4)cc3)[nH]c3ncnc(NCC4SCCS4)c23)cc1 | Fulfilled
Cc1cnc(C(=O)N[C@H]2CCOC[C@@H]2O)cc1Cc1ccc(-c2cscn2)cc1 | Fulfilled
CC(C)c1nnc(CN2CCN(c3nccs3)CC2)o1 | Not fulfilled
O=C(NCCc1cnn[nH]1)C1Cc2ccccc2C1 | Fulfilled
CC(=O)NC1(C(=O)N2CCCN(c3cccnn3)CC2)CCCCC1 | Fulfilled
c1ccc(-c2nsc(N3CCCN(c4nccs4)CC3)n2)cc1 | Not fulfilled

* * *

Overview of reported aqueous solubility across a group of compounds:
condition-info: pH 6.8

compound | aqueous solubility (µg/mL)
O=c1[nH]c2cnccc2n1Cc1ccccc1 | 31.5
O=C(c1ccc(Cn2nnc(-c3cccc(F)c3)n2)cc1)N1CCCC1 | 10.8
O=C(NCCc1ccc(O)c(O)c1)Nc1ccccn1 | 47.5
CN1CCC[C@@H]1CCO[C@](C)(c1ccccc1)c1ccc(Cl)cc1 | 98.7
Clc1ccc(C2(c3ccc(-c4cn[nH]c4)cc3)CCNCC2)cc1 | 18.5
CCCC(=O)N1CCC(c2cccc(C)n2)CC1 | 40.2
Nc1ncc(-c2cccc(C(F)(F)F)c2)c(C2CCCCN2C(=O)c2ccccc2)n1 (centres undefined) | 25.1
Cc1ccc(NC(=O)OC(C)(C)C)c2c1N(C(=O)[C@H]1CCCO1)CCC2 | 32.2
Cc1nn(C)c(C)c1CCC(=O)N1CCN(C)Cc2ccccc21 | 53
CC(=O)N1CCN(c2c(Cl)cccc2NC(=O)COc2ccccc2Cl)CC1 | 19.5
Cc1nn(C)c2ncnc(N(C)Cc3cccc(Cl)c3)c12 | 22.5
Cc1ccc(CCNC(=O)N2CC(C)(C)OC(C)(C)C2)cn1 | 41.1
COc1ccc(C(=O)N2CCCC2)cc1NC(=O)c1cc(F)c(F)c(F)c1F | 43.9
O=C1CCC(=O)N1Cc1nc(C23CC4CC(CC(C4)C2)C3)cs1 | 42.8
CCOC(=O)C1CCN(C(=O)c2cc3occc3c(Nc3ccc(F)cc3)n2)CC1 | 0.88
CN1C(=O)N(CC(=O)NCc2ccc(Cl)cc2)C(=O)C12CCCCC2 | 50.7
CCN(C(=O)N1CCC(CC(=O)N2CCN(C)CC2)CC1)C(C)C | 81.3
O=c1ccc(C2CC2)nn1CC1CN(CC2(O)CCCC2)C1 | 52.6
Cc1nc(CCN2C(=O)NC(C)(C)C2=O)cs1 | 31.9
CN(Cc1nc(N)c2ccccc2n1)Cc1ccc(F)cc1F | 43.1
Cc1nc(NCC(C)(C)c2ccccc2)n(C)n1 | 36.2
CC(C)(C)C(=O)Nc1sc2c(c1C#N)CCC2 | 1.91
CN(C)c1cccc(Cn2ccnc2-c2ccc(O)cc2)c1 | 27.1
Cc1nc(C)c(C)c(NCc2cc(-c3ccc(F)cc3)no2)n1 | 37.5

* * *

property: log10 intrinsic clearance, human liver microsomes (log10 of the value in mL/min/kg)

compound-structure | reported-measurement
CN1CCC(OC(=O)Nc2ccc(Cl)c(Cl)c2)CC1 | 0.93
O=S(=O)(NCCC(c1ccccc1)c1ccccc1)c1ccc(Cl)cc1 | 2.60
Cc1cc(CSCc2ccc(C#N)cc2)no1 | 1.88
Cc1ccc(OCN2CCCCC2=O)nc1 | 0.72
CN(C(=O)C1CCN(c2ncccn2)CC1)C1CCCCCCC1 | 2.72
Cc1cccc(NC(=O)N2CCC(N3CC=CC3)CC2)c1Cl | 0.96
COc1cc(CN2CCC(c3ccnc(C)n3)CC2)ccc1F | 1.05
COCC1(C(=O)N(C)Cc2ccc3ccccc3n2)CCC1 | 1.78
c1cnc(N2CC(c3nc4ccccc4[nH]3)C2)nc1 | 1.00
Cc1nnc2ncc(-c3cccc4ccnn34)cn12 | 0.97
Cc1ncc2c(n1)CN(CCCc1nc3ccccc3o1)CC2 | 1.93
COCc1ccccc1CNc1ccc2nnc(-c3ccccc3)n2n1 | 2.00
CCCOc1ccccc1C(=O)N1CC(Oc2cccc(OC)c2)C1 | 1.97
COCC1CCN(c2noc(-c3cccs3)n2)CC1 | 1.60
COC(=O)c1cc(F)c(C)c(NC(=O)CCCc2ccccn2)c1 | 2.90
N#Cc1cccc(CN2CCOC[C@H](Oc3ccccc3)C2)c1 | 2.11
CC(C)N(C)S(=O)(=O)N1CCC(CNC(=O)CCCn2cccn2)CC1 | 1.21
COc1cccc(OCCCn2cncc2-c2cc3c(cc2C)n(C)c(=O)n3C)c1 | 1.58
O=C(CN1CCCN(c2nccs2)CC1)Nc1cccc(Cl)c1 | 2.65
Cc1cccc(/C=N/Nc2cc(N3CCOCC3)n3nc(-c4ccncc4)cc3n2)c1 | 1.51
CN(Cc1ccccc1)C1(C(=O)N2CCNC(=O)CC2)Cc2ccccc2C1 | 2.05
Cc1ccc(-n2nc(C(C)(C)C)cc2NC(=O)Nc2ccc(OCCN3CCOCC3)c3ccccc23)cc1 | 2.57
Cc1cc(C)cc(OCCN(C)C(=O)NCCN2CCCCC2=O)c1 | 2.18
Cc1nccc(NC(=O)c2ccncc2Cl)c1Cl | 1.33
NC1(c2ccc(-c3nc4ccn5c(=O)[nH]nc5c4cc3-c3ccccc3)cc2)CCC1 | 1.17
CNc1nc(C2CCNCC2)nc2c1CN(C)CC2 | 0.98
COc1cc2c(cc1OC)CN(CN1C(=O)c3cccc4cccc1c34)CC2 | 2.12
Fc1ccccc1-c1noc(-c2ccc(NCCc3cnccn3)nc2)n1 | 1.01
COC(=O)c1cccc2c1CCCN2C(=O)c1ccc(F)cc1F | 3.06
O=C(CCCc1nnc(-c2ccccc2)o1)Nc1cccc2ccccc12 | 1.85
CN(c1ccccc1N)S(C)(=O)=O | 1.01
Cn1ncc2c(NOCc3ccccc3)ncnc21 | 1.18
CN(C)CCSc1nnnn1-c1ccc(Br)cc1 | 1.46
Cc1cccc(C(=O)N(C)CCc2cnccn2)c1 | 1.11

* * *

condition-info: pH 6.8
Overview of reported aqueous solubility across a group of molecules:

molecule | aqueous solubility [µg/mL]
CCCN(Cc1ccccc1)C(=O)CC1(N)CCC1 | 56.4
CC(C)CC(=O)N1CCC(Cc2cccc(-c3cncnc3)c2)(C(=O)NC(C)C)CC1 | 137
Cc1ccc(C(=O)Nc2ccccc2-c2ccccc2)o1 | 35.5
OC(CNCc1ccc(OCc2cccs2)cc1)c1ccccc1 (configuration not stated) | 42.9
CNC(=O)Cc1nc(-c2cncc(C)c2)cs1 | 37.6
O=C(CCCc1cc(Cl)sc1Cl)N1CCC(O)CC1 | 30.1
CON(C)C(=O)Cc1c(C)[nH]c2ccccc12 | 53
COc1ccccc1CNc1n[nH]c2nc([C@H]3CCCN(CC(=O)N4CCCC4)C3)ccc12 | 54.9
Cc1cnc(C(=O)N[C@H]2CCOC[C@@H]2O)cc1Cc1ccc(-c2cscn2)cc1 | 61.9
CCc1nc2ccc(C(=O)NCc3ccccc3)cc2nc1CC | 2.15
CC(C)(C)NC(=O)Cn1nc(C(c2ccccc2)c2ccccc2)oc1=O | 6.02
Cc1cc(C(=O)N(C)Cc2ccc(Br)cc2)no1 | 64
O=S(=O)(c1cn[nH]c1)N1CCCC(c2cccc(-c3cccc(Cl)c3)n2)C1 (configuration not stated) | 1.45
CCc1ncc2c(n1)CN(c1ccnc(-c3ccccc3)n1)CC2 | 34.9
CN(C)S(=O)(=O)N(C1CCCC1)C1CC1 | 32.6
CC1(C)CN(CC(=O)NCC#N)c2cccc(Cl)c21 | 28.5
COc1cc(CNc2nnn[nH]2)cc(Br)c1OCc1ccc(Cl)cc1 | 1.88
CN(CCc1ccccn1)C(=O)Nc1nncs1 | 45.6
COc1ccc(/C=C/C(=O)c2c(C)nc3ccccc3c2N)c(OC)c1 | 40.6
CCc1ccc(-c2nccn2CC(=O)Nc2ccc(C)cc2F)nc1 | 28.3
Cc1ccc2nc3c(c(C(=O)NCc4nnc5n4CCC5)c2c1)CCCC3 | 57.1
Cc1ccc(C(=O)N(C)Cc2c(C)noc2C)cn1 | 40.8
N#Cc1cc(F)c(NS(=O)(=O)c2c[nH]c3cc(Cl)ccc23)cc1F | 66.1
CCc1ccc(S(=O)(=O)NCc2ccnc(N3CCCC3)n2)cc1 | 67.7
COc1ccccc1C(=O)NCc1nc(C)cc(N2CCCCC2)n1 | 67
COc1ccc(N)cc1N1CCOC1=O | 32.2
CN(C)C1(CNC(=O)N2CCCC(C)(C)CC2)CCOCC1 | 56.9
CC(C)c1ccc(NC(=O)c2ccc3nccnc3c2)cc1 | 4.96
Cc1ccc2oc([C@H]3CCN(Cc4cccs4)C3)nc2c1 | 26.3
Cc1ccc(-c2ccc3c(ccc4sc5c(c43)NC[C@@H](C)NC5=O)n2)cn1 | 0.2
Clc1ccc(Cc2nc(-c3cccnc3)no2)cc1 | 16.5
O=C(c1cccs1)N1CCCC(C(=O)N2Cc3ccccc3C(c3ccccc3)C2)C1 (configuration not stated) | 24.7
CCCCn1nc(-c2ccc(C)o2)nc1CNC | 29.3
CN(Cc1cccc(C#N)c1)Cc1cnn(C)c1 | 32.1
FC(F)(F)c1nc(Nc2ccc(-n3cnnn3)cc2)c2ccccc2n1 | 1.15
O=C(NCc1ccc(O)c(O)c1)c1ccc2ccccc2n1 | 55.4
Cc1ccccc1COC1CN(C(=O)Cn2c(=O)[nH]c3ccccc32)C1 | 45.2
CN(C)CCn1ccc2cc(NC(=O)c3ccc(=O)[nH]n3)ccc21 | 53.5
CN1CCN(C(=O)C2(NC(=O)c3cc(Cl)c4c(c3)OCO4)CCCC2)CC1 | 79
Cc1noc(C)c1CCC(=O)Nc1cccnc1 | 55.7
Cc1nc2ncccn2c1C(=O)N(CC#Cc1ccccc1)C1CCCC1 | 42.9
O=C(NCc1ccc(F)cc1)C1(Cc2ccc(-c3cccnc3)cc2)CCOCC1 | 87.5
CNC(=O)C1CCN(Cc2ncc(-c3ccc(F)cc3)o2)CC1 | 19.8
Cc1c(-c2ccccc2)oc2c(C(=O)NCCCN3CCCCC3)cccc2c1=O | 48.7
COc1ccc(CN(C)C(=O)C2(C#N)CCC2)cc1 | 56.6
O=C(Nc1cc(C2CC2)n[nH]1)C1CCN(C(=O)COc2ccccc2)CC1 | 42.5
COc1ccc(-c2nc(CN3CCC[C@H](O)C3)no2)cc1 | 36.8
